# tested.target: kappa-opioid receptor (Cavia porcellus, UniProt P41144)
# Construct: kappa receptors from guinea pig cerebellar homogenate; from tissue; host or cells: guinea pig cerebellar homogenate (membrane fractions)
# Sequence (P41144 whole entry): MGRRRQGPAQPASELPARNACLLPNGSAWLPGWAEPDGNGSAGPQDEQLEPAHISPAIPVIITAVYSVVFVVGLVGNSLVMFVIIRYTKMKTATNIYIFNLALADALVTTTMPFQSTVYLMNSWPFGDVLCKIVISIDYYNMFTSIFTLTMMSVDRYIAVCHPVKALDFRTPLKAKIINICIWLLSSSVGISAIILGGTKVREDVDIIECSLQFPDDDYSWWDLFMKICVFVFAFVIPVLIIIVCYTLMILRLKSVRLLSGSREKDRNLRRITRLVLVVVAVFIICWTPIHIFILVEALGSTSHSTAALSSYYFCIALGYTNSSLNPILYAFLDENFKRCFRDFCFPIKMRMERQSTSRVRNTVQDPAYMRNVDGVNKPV
# protocol.notes: Radioligand binding, kappa receptor ([3H]U69593)
# Set-up: species or system guinea pig
# Procedure: The basic pharmacology of the Formulas (i)-(iv) is described below in terms of receptor binding affinity (delta and mu receptors from rat whole brain homogenate; kappa receptors from guinea pig cerebellar homogenate), intrinsic activity in mouse isolated vas deferens (delta receptor) and guinea pig isolated ileum (mu receptor). Membrane fractions were incubated with test compound or naloxone (1×10^−6 M) plus 0.1 nM of the delta-opioid receptor agonist [^3H] […]
measured.metric: pKi
The value called pKi is obtained by taking minus log10 of the concentration in mol/L.

These recorded examples may help you get a feel for the data.
INSERT INTO results (compound, tested_target, numeric_value) VALUES
  ('CCN(CC)C(=O)c1ccc([C@H](c2cccc(OC)c2)N2C[C@@H](C)N(Cc3ccccc3F)C[C@@H]2C)cc1 [Formula (iv)]', 'kappa-opioid receptor (Cavia porcellus, UniProt P41144)', 7.00),
  ('CCN(CC)C(=O)c1ccc([C@H](c2cccc(OC)c2)N2C[C@@H](C)N(Cc3cccc(F)c3)C[C@@H]2C)cc1 [Formula (iii)]', 'kappa-opioid receptor (Cavia porcellus, UniProt P41144)', 7.00),
  ('CCN(CC)C(=O)c1ccc([C@H](c2cccc(O)c2)N2C[C@@H](C)N(Cc3ccccc3F)C[C@@H]2C)cc1 [Formula (ii)]', 'kappa-opioid receptor (Cavia porcellus, UniProt P41144)', 6.77);

# input # assay system kappa-opioid receptor (Cavia porcellus, UniProt P41144): give pKi of CCN(CC)C(=O)c1ccc([C@H](c2cccc(O)c2)N2C[C@@H](C)N(Cc3cccc(F)c3)C[C@@H]2C)cc1 [Formula (i)]
# output 6.25

Origin of the recorded values: patent US9701645B2
